Test system: HS729
method description: relative viability vs DMSO control (72 h) (fraction); higher = more viable cells
condition context: 3.333 µM
I'd appreciate it if you could label each record using relative viability and these ranges: interval 1 (below 0.5), interval 2 (0.5 to below 0.9), interval 3 (0.9 or more)

>>> label_class("Nc1cc(C(F)(F)F)c(-c2cc(N3CCOCC3)nc(N3CCOCC3)n2)cn1")
"interval 1"
>>> label_class("C[C@@H]1CCN(C(=O)CC#N)C[C@@H]1N(C)c1ncnc2[nH]ccc12")
"interval 2"
>>> label_class("CN1CCC(COc2cnc(-c3cccc(Cn4nc(-c5cccc(C#N)c5)ccc4=O)c3)nc2)CC1")
"interval 2"
>>> label_class("C[C@@H](c1ccc2nccn2c1)n1nnc2ncc(-c3cnn(C)c3)nc21")
"interval 3"
>>> label_class("CC(C)(C)c1cc(NC(=O)Nc2ccc(-c3cn4c(n3)sc3cc(OCCN5CCOCC5)ccc34)cc2)no1")
"interval 2"
>>> label_class("CC(C)NC(=O)C1CCC(n2c(NC(=O)c3ccc(F)cc3)nc3ccc(CN4CCC(C(C)(C)O)CC4)cc32)CC1 (stereo not given)")
"interval 2"
>>> label_class("CC(=O)Nc1cccc(-n2c(=O)n(C3CC3)c(=O)c3c(Nc4ccc(I)cc4F)n(C)c(=O)c(C)c32)c1")
"interval 2"
>>> label_class("CN1CCN(c2ccc3nc(-c4c(N)c5c(F)cccc5[nH]c4=O)[nH]c3c2)CC1")
"interval 1"
>>> label_class("C[C@@H]1COCCN1c1cc(-c2ccnn2C)c2ccnc(-c3ccn[nH]3)c2n1")
"interval 1"
>>> label_class("C=CC(=O)N1CCC([C@@H]2CCNc3c(C(N)=O)c(-c4ccc(Oc5ccccc5)cc4)nn32)CC1")
"interval 3"
>>> label_class("COc1cc2nccc(Oc3ccc(NC(=O)Nc4cc(C)on4)c(Cl)c3)c2cc1OC")
"interval 2"
>>> label_class("CC(C)N1CCN(Cc2cnc(-c3cc(-c4cccc5[nH]ccc45)cc4[nH]ncc34)o2)CC1")
"interval 2"

Each recorded value in this set is attributed to the supplement of paper PMC10883282.
